Test system: L1210 leukemia ip in BDF1 mice, survival T/C
Test: NCI In Vivo Anticancer Drug Screen. Data for tumor model L1210 Leukemia (intraperitoneal) in B6D2F1 (BDF1) mice
Conditions: endpoint: mean survival time; dose: 100.0 mg/kg/injection; schedule: Q01DX009 (ip); vehicle: Klucel (hydroxypropylcellulose) (HPC)
Description: The antitumor activity of compounds was measured in mice bearing transplantable tumors. Survival or tumor size were measured and the results are expressed as the measurement made in the treated group (T) divided by the measurement made in the vehicle treated control group (C). The tumor model used in this assay is L1210 Leukemia (intraperitoneal) in B6D2F1 (BDF1) mice
Inconclusive results and toxic doses are left out. No stated cut-off is given here; in the data, active means T/C of 150% or more; inactive means T/C below 125%.
Classes used: active, inactive

compound	group-label
C#CC(O)C1OC2OC(C)(C)OC2C1O (centres undefined)	active
CC1(C#N)CC(c2ccccc2)Nc2ccccc2N1 (centres undefined)	inactive
NS(=O)(=O)c1ccc(N=Cc2ccc3c(c2)OCO3)cc1	inactive
O=C(O)CCCCCNC(=O)c1ccccc1	inactive
CC1(C)OC2OC(COS(C)(=O)=O)C(O)C2O1 (centres undefined)	inactive
CCCCCCCCCCCCCCCCCC(=O)OCCCCCCC	inactive
CN(Cc1ccccc1)C(=O)c1cccc([N+](=O)[O-])c1	inactive
Nc1cccc(OCCCOc2cccc([N+](=O)[O-])c2)c1	inactive
CCOC(=O)c1cc(OC(C)=O)c2c(ccc3ccccc32)c1C	inactive

---

System: L1210 leukemia ip in BDF1 mice, survival T/C
Assay: NCI In Vivo Anticancer Drug Screen. Data for tumor model L1210 Leukemia (intraperitoneal) in B6D2F1 (BDF1) mice
Conditions: endpoint: mean survival time; dose: 400.0 mg/kg/injection; schedule: Q04DX003 (ip); vehicle: saline with Tween-80; higher = longer survival
Experimental: The antitumor activity of compounds was measured in mice bearing transplantable tumors. Survival or tumor size were measured and the results are expressed as the measurement made in the treated group (T) divided by the measurement made in the vehicle treated control group (C). The tumor model used in this assay is L1210 Leukemia (intraperitoneal) in B6D2F1 (BDF1) mice
Toxic doses and inconclusive results are not listed. Peptide text beside a SMILES is read from it. * marks the point of attachment. Cbz = O=C(OCc1ccccc1)*; OtBu = CC(C)(C)O*
# T/C listing for each entry below

compound	T/C
CC(=O)OCc1ccc(Cl)cc1Cl	101 % of control
Cc1cc(C)n(/N=C/c2cccc(Cl)c2)c(=O)c1C#N	90 % of control
CCOC(=O)CCN(CC(=O)OCC)C(C)C	103 % of control
CN1CSCSC1	97 % of control
CCn1nnc2c(=O)[nH]c(N)nc21	94 % of control
O=[N+]([O-])c1ccc2[nH]c3c(c2c1)CSCC3	95 % of control
O=c1c2ccccc2c(=O)c2c1ccc1[nH]c3ccccc3n(-c3ccccc3)c12	94 % of control
O=C1OC(=O)C2CC(Cl)C(Cl)CC12 (stereo unspecified)	104 % of control
CC(=O)N1C=C(Br)c2ccccc2C1C1c2ccccc2C(Br)=CN1C(C)=O (stereo unspecified)	91 % of control
COc1ccc(OCC(=O)O)cc1	107 % of control
CN(C)N=Nc1ccc(C(F)(F)F)cc1	98 % of control
Oc1ccccc1N=CC1CCCCC1	92 % of control
CC1C2CCC(C2)C1C(=O)O (stereo unspecified)	87 % of control
CCC(C)C(NC(=O)C1CSC(C)(C)N1C=O)C(=O)OC1CCCCC1 (stereo unspecified)	101 % of control
COC(=O)C(CCC(=O)OC(C)(C)C)NC(=O)C(NC(=O)OCc1ccccc1)C(C)C (stereo not drawn) (Cbz-Val-Glu(OtBu)-OMe; configuration not given here)	95 % of control
Cc1cc2ncn(C(=O)Nc3ccccc3)c2cc1C	90 % of control
CCNC(=O)C1C2C=CC(C2)C1C(=O)NCC (stereo unspecified)	87 % of control
COc1cccc(NC(=O)NC(C)(C)C)c1	96 % of control
Cc1ccc(Cl)cc1NC(=O)Nc1cccc2c(O)cccc12	101 % of control
C=CCOc1c(C)cc(C)cc1/C=C/C	96 % of control
CC1(C)CC(N=Cc2ccccc2O)CC(C)(C)N1O	100 % of control
Cc1ccc(-c2nnc3n2C(C)(C)N=C(N)N3)cc1	101 % of control
COC(OC)c1[nH]c(=S)[nH]c(=O)c1CCCc1ccccc1	96 % of control
O=C(c1ccccc1)c1cccc([N+](=O)[O-])c1	89 % of control
O=C1OC(=O)C2C3C=CC(C3)C12 (stereo unspecified)	97 % of control
O=C(/C=C/C(=O)N1CCOCC1)N1CCOCC1	116 % of control
CCCC(=O)Nc1ccc(O)cc1	106 % of control
COc1ccccc1OC(=S)N(C)C	105 % of control
COc1cccc(OC)c1C1(O)c2ccccc2-c2ccccc21	95 % of control
CN(C)C(=O)Nc1cccc(OC(=O)NCCCl)c1	94 % of control
CCOC(=O)c1cc2ccccc2c2ccccc12	98 % of control
Cc1ccccc1C1(O)c2ccccc2-c2ccccc21	96 % of control
CSc1ccc(NC(=O)Oc2ccc3c(C)cc(=O)oc3c2)cc1	95 % of control
CC(=O)Oc1ccc2c(c1)C1(C)CCCC(C)(C(=O)O)C1CC2 (stereo unspecified)	94 % of control
C=CCNC(=S)Nc1cccc(C(C)OC(=O)NC(C)(C)C)c1 (stereo unspecified)	94 % of control
CC(Oc1ccc(Br)cc1Br)C(=O)O (stereo unspecified)	95 % of control
CC(C)OC(=O)C(NC=O)C(C)(C)S (stereo unspecified)	97 % of control
COC(=O)/C(C#N)=C/c1c[nH]c2ccccc12	98 % of control
CCN(CC)c1ccc(NC(=O)Nc2ccccc2OC)cc1	96 % of control
CC(=O)CC(=O)Nc1cc(Cl)c(NC(=O)CC(C)=O)cc1Cl	88 % of control
O=C(O)/C(=C\c1[nH]c(=O)[nH]c(=O)c1Br)NC(=O)c1ccccc1	101 % of control
COC(CCCl)c1ccccc1 (stereo unspecified)	91 % of control
CC(C)c1nc(-c2ccccc2)c(-c2ccccc2)[nH]1	93 % of control
CN(C(N)=S)c1ccccc1	104 % of control
O=C1C(Br)=Cc2cccc3cccc1c23	103 % of control
C#CCNC(=O)NCCCl	101 % of control

Where these numbers come from: PubChem BioAssay AID248
